Items are presented alongside their recorded Decrease in MNV-1 infectivity (log reduction).
Tested on: MNV-1
Assay: MNV-1 inactivation by heat-denatured Lzm peptides (plaque assay)
Type: cell-based, murine norovirus strain 1
Conditions: peptides at same molar concentration as 1.0% (w/v) lysozyme, or DL 1% pH 3.7; heat-denatured 100°C 40 min; MNV-1 approx. 6 log PFU/mL, 60 min, room temperature; mean, n = 3
Output spec: scalar in log PFU/mL, unitless text.

For orientation, consider the following solved cases.
sequence_text="ITASVNCAKKIVSDGNGMNAWVAWRNRCKGTDVQAWIR [Lzm 88–125, synthetic peptide containing lysozyme residues 88–125]" reading_unit="log PFU/mL" number=0.2
sequence_text="RCNLAAAMKRHGLNNYRGYSLGNWVCAAKFNSNFN [Lzm R3, variant of Lzm 5–39, all acidic amino acids replaced with uncharged amino acids]" reading_unit="log PFU/mL" number=2.0
sequence_text="KVFGRCELAAAMKRHGLDNYRGYSLGNWVCAAKFE [Lzm 1–35, synthetic peptide containing lysozyme residues 1–35]" reading_unit="log PFU/mL" number=1.7

# evaluate next
Fill in: Decrease in MNV-1 infectivity (log reduction) of RCELAAAMKRHGLDNYRGYSLGNWVCAAKFESNFN [Lzm 5–39, synthetic peptide of lysozyme residues 5–39] is ___
1.7
